This collection of values is drawn from patent US20110195911A1.

Target: Insulin-like growth factor 1 receptor (IGF1R) (UniProt P08069 31-1367, limits assumed)
Sequence (P08069 31-1367 limits assumed): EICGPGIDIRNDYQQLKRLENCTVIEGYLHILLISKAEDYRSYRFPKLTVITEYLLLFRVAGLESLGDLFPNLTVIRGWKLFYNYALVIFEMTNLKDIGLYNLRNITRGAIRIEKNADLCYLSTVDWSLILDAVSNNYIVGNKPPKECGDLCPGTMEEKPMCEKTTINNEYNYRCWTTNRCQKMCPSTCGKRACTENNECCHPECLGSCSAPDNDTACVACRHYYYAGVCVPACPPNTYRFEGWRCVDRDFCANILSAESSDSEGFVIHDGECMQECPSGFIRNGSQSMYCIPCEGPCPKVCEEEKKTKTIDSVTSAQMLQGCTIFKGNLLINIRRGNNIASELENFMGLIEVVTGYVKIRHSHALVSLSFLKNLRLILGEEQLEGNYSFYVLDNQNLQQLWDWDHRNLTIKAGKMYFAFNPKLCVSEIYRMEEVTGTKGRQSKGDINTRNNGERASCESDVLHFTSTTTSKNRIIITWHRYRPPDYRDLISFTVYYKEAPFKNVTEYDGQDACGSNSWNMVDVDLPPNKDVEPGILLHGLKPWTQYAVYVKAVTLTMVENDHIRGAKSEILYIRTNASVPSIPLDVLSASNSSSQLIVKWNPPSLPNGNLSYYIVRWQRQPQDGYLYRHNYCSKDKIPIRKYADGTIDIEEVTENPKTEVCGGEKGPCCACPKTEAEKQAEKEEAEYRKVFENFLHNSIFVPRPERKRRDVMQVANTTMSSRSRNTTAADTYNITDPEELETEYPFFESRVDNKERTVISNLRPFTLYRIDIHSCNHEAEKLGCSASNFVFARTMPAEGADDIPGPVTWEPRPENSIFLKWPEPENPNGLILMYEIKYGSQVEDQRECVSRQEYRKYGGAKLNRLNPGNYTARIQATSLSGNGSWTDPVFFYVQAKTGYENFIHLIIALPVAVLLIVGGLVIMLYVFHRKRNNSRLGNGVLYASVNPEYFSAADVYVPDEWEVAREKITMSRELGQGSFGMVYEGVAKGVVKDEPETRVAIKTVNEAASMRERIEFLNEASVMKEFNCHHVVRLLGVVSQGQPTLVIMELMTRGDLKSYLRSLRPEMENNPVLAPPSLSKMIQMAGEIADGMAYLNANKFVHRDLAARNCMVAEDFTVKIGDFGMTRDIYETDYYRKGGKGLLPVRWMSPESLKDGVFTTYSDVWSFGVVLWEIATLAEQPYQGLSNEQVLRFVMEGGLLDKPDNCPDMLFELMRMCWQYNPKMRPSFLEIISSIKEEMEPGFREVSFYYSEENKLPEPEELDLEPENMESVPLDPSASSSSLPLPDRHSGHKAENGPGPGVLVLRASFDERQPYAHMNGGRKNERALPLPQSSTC
Test: cell-based or functional assay
The star is where a group is joined. Palmitoyl = CCCCCCCCCCCCCCCC(=O)*
MEASURED ATTRIBUTE: GI50 (µM), MTT assay, MCF-7 cells

BINDER	GI50 (µM), MTT assay, MCF-7 cells
Palmitoyl-HRKRNNSRLGNGVLY-NH2 (SMILES CCCCCCCCCCCCCCCC(=O)N[C@@H](Cc1c[nH]cn1)C(=O)N[C@@H](CCCNC(=N)N)C(=O)N[C@@H](CCCCN)C(=O)N[C@@H](CCCNC(=N)N)C(=O)N[C@@H](CC(N)=O)C(=O)N[C@@H](CC(N)=O)C(=O)N[C@@H](CO)C(=O)N[C@@H](CCCNC(=N)N)C(=O)N[C@@H](CC(C)C)C(=O)NCC(=O)N[C@@H](CC(N)=O)C(=O)NCC(=O)N[C@H](C(=O)N[C@@H](CC(C)C)C(=O)N[C@@H](Cc1ccc(O)cc1)C(N)=O)C(C)C) [peptide 9 (Pal-HRKRNNSRLGNGVLY-NH2)]	1.65
Palmitoyl-KRNNSRLGNGVLYASVN-NH2 (SMILES CCCCCCCCCCCCCCCC(=O)N[C@@H](CCCCN)C(=O)N[C@@H](CCCNC(=N)N)C(=O)N[C@@H](CC(N)=O)C(=O)N[C@@H](CC(N)=O)C(=O)N[C@@H](CO)C(=O)N[C@@H](CCCNC(=N)N)C(=O)N[C@@H](CC(C)C)C(=O)NCC(=O)N[C@@H](CC(N)=O)C(=O)NCC(=O)N[C@H](C(=O)N[C@@H](CC(C)C)C(=O)N[C@@H](Cc1ccc(O)cc1)C(=O)N[C@@H](C)C(=O)N[C@@H](CO)C(=O)N[C@H](C(=O)N[C@@H](CC(N)=O)C(N)=O)C(C)C)C(C)C) [peptide 13 (Pal-KRNNSRLGNGVLYASVN-NH2)]	0.08
Palmitoyl-KRNNSRLGNGVLY-NH2 (SMILES CCCCCCCCCCCCCCCC(=O)N[C@@H](CCCCN)C(=O)N[C@@H](CCCNC(=N)N)C(=O)N[C@@H](CC(N)=O)C(=O)N[C@@H](CC(N)=O)C(=O)N[C@@H](CO)C(=O)N[C@@H](CCCNC(=N)N)C(=O)N[C@@H](CC(C)C)C(=O)NCC(=O)N[C@@H](CC(N)=O)C(=O)NCC(=O)N[C@H](C(=O)N[C@@H](CC(C)C)C(=O)N[C@@H](Cc1ccc(O)cc1)C(N)=O)C(C)C) [peptide 27 (Pal-KRNNSRLGNGVLY-NH2)]	1.1
Palmitoyl-RLGNGVLY-NH2 (SMILES CCCCCCCCCCCCCCCC(=O)N[C@@H](CCCNC(=N)N)C(=O)N[C@@H](CC(C)C)C(=O)NCC(=O)N[C@@H](CC(N)=O)C(=O)NCC(=O)N[C@H](C(=O)N[C@@H](CC(C)C)C(=O)N[C@@H](Cc1ccc(O)cc1)C(N)=O)C(C)C) [peptide 20 (Pal-RLGNGVLY-NH2)]	0.2
Palmitoyl-RKRNNSRLGNGVLYASVN-NH2 (SMILES CCCCCCCCCCCCCCCC(=O)N[C@@H](CCCNC(=N)N)C(=O)N[C@@H](CCCCN)C(=O)N[C@@H](CCCNC(=N)N)C(=O)N[C@@H](CC(N)=O)C(=O)N[C@@H](CC(N)=O)C(=O)N[C@@H](CO)C(=O)N[C@@H](CCCNC(=N)N)C(=O)N[C@@H](CC(C)C)C(=O)NCC(=O)N[C@@H](CC(N)=O)C(=O)NCC(=O)N[C@H](C(=O)N[C@@H](CC(C)C)C(=O)N[C@@H](Cc1ccc(O)cc1)C(=O)N[C@@H](C)C(=O)N[C@@H](CO)C(=O)N[C@H](C(=O)N[C@@H](CC(N)=O)C(N)=O)C(C)C)C(C)C) [peptide 12 (Pal-RKRNNSRLGNGVLYASVN-NH2)]	1.2
Palmitoyl-RNNSRLGNGVLYASV-NH2 (not fully specified; printed as Pal-RNNSRLGNGVLYASV-NH2) [peptide 35 (Pal-RNNSRLGNGVLYASV-NH2)]	0.05
Palmitoyl-RNNSRLGNGVLYAS-NH2 (not fully specified; printed as Pal-RNNSRLGNGVLYAS-NH2) [peptide 34 (Pal-RNNSRLGNGVLYAS-NH2)]	0.04
Palmitoyl-RNNSRLGNGVL-NH2 (SMILES CCCCCCCCCCCCCCCC(=O)N[C@@H](CCCNC(=N)N)C(=O)N[C@@H](CC(N)=O)C(=O)N[C@@H](CC(N)=O)C(=O)N[C@@H](CO)C(=O)N[C@@H](CCCNC(=N)N)C(=O)N[C@@H](CC(C)C)C(=O)NCC(=O)N[C@@H](CC(N)=O)C(=O)NCC(=O)N[C@H](C(=O)N[C@@H](CC(C)C)C(N)=O)C(C)C) [peptide 30 (Pal-RNNSRLGNGVL-NH2)]	1.7
